Assignment: determine reported % of compound remaining when incubated in rat liver microsomes for the given molecules.
test: In vitro microsomal stability, rat; format: in vitro ADME; settings: Table 17, 6 min

### Prompt // Input: `CNC(=O)[C@@H]1N[C@H](CC(C)(C)C)[C@]2(C(=O)Nc3cc(Cl)c(F)cc32)[C@H]1c1cccc(Cl)c1` . Output its % of compound remaining when incubated in rat liver microsomes only.
### Response 70.1%

### Prompt For the molecule `CN1CCN(CCCNC(=O)[C@@H]2N[C@H](CC(C)(C)C)[C@]3(C(=O)Nc4cc(Cl)c(F)cc43)[C@H]2c2cccc(Cl)c2)CC1` , give its measured % of compound remaining when incubated in rat liver microsomes value.
### Response 62.9%

### Prompt Quickly give me recorded % of compound remaining when incubated in rat liver microsomes for `CC(C)(C)C[C@H]1N[C@@H](C(=O)NCCCN2CCCC2)[C@H](c2cccc(Cl)c2F)[C@@]12C(=O)Nc1cc(Cl)c(F)cc12`
### Response 76.5%

----------
system: Isogenic HCT-116 colon cancer cell lines; experiment: cells; type: cell-based; conditions: Homo sapiens, HCT-116, read-out: Inhibition of cell growth IC50, HCT116 p53 KO, Table 19B; HCT116 p53 KO
Quantity measured: IC50 (µM)
Give the value in µM but do not write µM after it.

### Prompt Find the measured IC50 of `CC(C)CC(C)(C)C[C@H]1N(C)[C@@H](C(=O)NCC[C@H](O)CO)[C@H](c2ccc(F)c(Cl)c2)[C@@]12C(=O)Nc1cc(F)c(F)cc12` and report it.
### Response 8.2

### Prompt Recall and state the measured IC50 for `CC(C)CC(C)(C)C[C@H]1N(C)[C@@H](C(=O)NCC[C@H](O)CO)[C@H](c2cccc(Cl)c2)[C@@]12C(=O)Nc1cc(Cl)c(F)cc12` .
### Response 8

### Prompt Could you please provide reported IC50 for `CC(C)CC(C)(C)C[C@H]1N[C@@H](C(=O)NCC[C@H](O)CO)[C@H](c2cccc(Cl)c2)[C@@]12C(=O)Nc1cc(F)c(F)cc12` ? Thanks!
### Response 8.5

### Prompt Supply measured IC50 of `CC(C)CC(C)(C)C[C@H]1N[C@@H](C(=O)NCC[C@H](O)CO)[C@H](c2cccc(Cl)c2F)[C@@]12C(=O)Nc1cc(F)c(F)cc12` in your reply.
### Response 10.2

### Prompt Give the measured IC50 for `O=C(NCC[C@H](O)CO)[C@@H]1N[C@H](CCC2CCCC2)[C@]2(C(=O)Nc3cc(Cl)c(F)cc32)[C@H]1c1cccc(Cl)c1`
### Response 9.1

### Prompt Supply IC50 value. Item: `CN1[C@@H](C(=O)NCC[C@H](O)CO)[C@H](c2cccc(Cl)c2)[C@@]2(C(=O)Nc3cc(Cl)c(F)cc32)[C@H]1CCc1cccs1`
### Response 7.5

### Prompt Return IC50 for the following molecule: `CCC[C@H]1N[C@@H](C(=O)NCC[C@H](O)CO)[C@H](c2cccc(Cl)c2)[C@@]12C(=O)Nc1cc(Cl)c(F)cc12`
### Response 12.7

### Prompt Input `CC(C)CC(C)(C)C[C@H]1N(C)[C@@H](C(=O)NCC[C@H](O)CO)[C@H](c2cccc(Cl)c2F)[C@@]12C(=O)Nc1cc(Cl)c(F)cc12` , output reported IC50.
### Response 8.7

### Prompt Quickly give me recorded IC50 for `O=C(NCC[C@H](O)CO)[C@@H]1N[C@H](CCCc2cccs2)[C@]2(C(=O)Nc3cc(Cl)c(F)cc32)[C@H]1c1cccc(Cl)c1`
### Response 12.4

### Prompt Return the recorded IC50 value; entry: `O=C(NCC[C@H](O)CO)[C@@H]1N[C@H](CCCc2ccccc2)[C@]2(C(=O)Nc3cc(Cl)c(F)cc32)[C@H]1c1cccc(Cl)c1`
### Response 12.1

### Prompt Give a short answer stating reported IC50 for `CCCC(C)(C)C[C@H]1N[C@@H](C(=O)NCC[C@H](O)CO)[C@H](c2cccc(Cl)c2)[C@@]12C(=O)Nc1cc(Cl)c(F)cc12` .
### Response 8.9

### Prompt Provide IC50 value for the following molecule: `CC(C)CC(C)(C)C[C@H]1N(C)[C@@H](C(=O)NCC[C@H](O)CO)[C@H](c2cccc(Cl)c2F)[C@@]12C(=O)Nc1cc(F)c(F)cc12`
### Response 8.2

----------
biological target: recombinant human His-tagged MDM2 protein (residues 1-118) (Homo sapiens (Human), UniProt Q00987); experiment: Fluorescence-polarization MDM2 binding assay; conditions: Table 19A; FP binding assay; read-out: MDM2 IC50;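 further: fluorescence polarization read after three hours of incubation in potassium phosphate buffer containing bovine gamma globulin and Triton X-100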
Sequence (Q00987 1-118): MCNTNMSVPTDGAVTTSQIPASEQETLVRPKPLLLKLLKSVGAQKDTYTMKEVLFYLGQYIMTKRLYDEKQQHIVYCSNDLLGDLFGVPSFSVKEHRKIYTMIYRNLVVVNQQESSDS
Kindly state IC50 for each of the entries shown.

### Prompt Give reported IC50 value for O=C(NC1CCC(O)CC1)[C@@H]1N[C@H](C=C2CCCC2)[C@]2(C(=O)Nc3cc(Cl)ccc32)[C@H]1c1cccc(Cl)c1F (some centres unmarked) [MI-792]
### Response < 5 µM

### Prompt Provide one value: measured IC50 of CC(C)N1CCN(CCCNC(=O)[C@@H]2N[C@H](CC(C)(C)C)[C@]3(C(=O)Nc4cc(Cl)ccc43)[C@H]2c2cccc(Cl)c2F)CC1 [MI-519-45]
### Response < 10 µM

### Prompt Please indicate IC50 recorded for CC(=O)OC(C)(C)C(=O)N1CC(NC(=O)[C@@H]2N[C@H](CC(C)(C)C)[C@]3(C(=O)Nc4cc(Cl)ccc43)[C@H]2c2cccc(Cl)c2F)C1 [MI-914]
### Response < 1 µM

### Prompt Report IC50 for CN(C)CC(=O)N1CCN(C(=O)[C@@H]2N[C@H](CC(C)(C)C)[C@]3(C(=O)Nc4cc(Cl)c(F)cc43)[C@H]2c2cccc(Cl)c2)CC1 [MI-744]
### Response < 10 µM

### Prompt For CC(C)(C)C[C@H]1N[C@@H](C(=O)NC2CN(C(=O)NC3CCCCC3)C2)[C@H](c2cccc(Cl)c2F)[C@@]12C(=O)Nc1cc(Cl)ccc12 [MI-913] , write its IC50.
### Response < 3 µM

### Prompt Please give measured IC50 of the following entry: CC(C)(C)C[C@H]1N[C@@H](C(=O)NCCN2CCC(O)CC2)[C@H](c2cccc(Cl)c2)[C@@]12C(=O)Nc1cc(Cl)c(F)cc12 [MI-759]
### Response < 1 µM

### Prompt State its IC50: CC(C)(C)C[C@H]1N[C@@H](C(=O)NC2CCN(S(C)(=O)=O)CC2)[C@H](c2cccc(Cl)c2F)[C@@]12C(=O)Nc1cc(Cl)ccc12 [MI-779]
### Response < 0.1 µM

### Prompt Name the recorded IC50 of the molecule listed here: `CC(C)(C)C[C@@H]1N[C@@H](C(=O)N[C@H]2C[C@@](C)(O)C2)[C@H](c2cccc(Cl)c2F)[C@]12C(=O)Nc1c2ccc(Cl)c1F`
### Response < 0.1 µM

----------
test system: Isogenic HCT-116 colon cancer cell lines; assay: cells; assay type: cell-based; conditions: Homo sapiens, HCT-116, read-out: HCT-116 (p53 wild-type) IC50;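 further: cells grown in 96-well plates in McCoy's 5A medium with 10% FBS, exposed to compound for 4 days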
pIC50: −log10 of the molar value.
Quantity measured: pIC50

### Prompt Fill in pIC50 for record CC(C)(C)C[C@H]1N[C@@H](C(=O)N[C@H]2C[C@H](NS(C)(=O)=O)C2)[C@H](c2cccc(Cl)c2F)[C@@]12C(=O)Nc1cc(Cl)ccc12 [MI-519-61]
### Response > 5.52

### Prompt Please give measured pIC50 of the following entry: CC(C)(C)C[C@H]1N[C@@H](C(=O)N[C@H]2C[C@@](C)(O)C2)[C@H](c2cccc(Cl)c2F)[C@@]12C(=O)Nc1cc(Cl)ccc12 [MI-519-64]
### Response > 6.00

### Prompt Answer with the recorded pIC50 for the molecule listed here: CC(C)(C)C[C@H]1N[C@@H](C(=O)NCC(C)(C)O)[C@H](c2cccc(Cl)c2F)[C@@]12C(=O)Nc1cc(Cl)ccc12 [MI-519-62]
### Response > 5.52

### Prompt Please indicate pIC50 recorded for CC(C)(C)C[C@H]1N[C@@H](C(=O)NC2CC(O)C2)[C@H](c2cccc(Cl)c2F)[C@@]12C(=O)Nc1cc(Cl)ccc12 (stereo partly shown) [MI-519-60]
### Response > 5.52

----------
system: cancer cell lines with wild-type p53 / mutated or deleted p53 (ATCC); test: Cell growth assay (WST-8), other cancer cell lines; format: cell-based; conditions: Homo sapiens, PC-3, Table 19A; PC-3 cells, deleted p53, cell growth; read-out: PC-3 (deleted p53) IC50
pIC50: −log10 of the molar value.
Quantity measured: pIC50

### Prompt Check the records and state pIC50 for `CC(=O)OC(C)(C)C(=O)N1CC(NC(=O)[C@@H]2N[C@H](CC(C)(C)C)[C@]3(C(=O)Nc4cc(Cl)ccc43)[C@H]2c2cccc(Cl)c2F)C1`
### Response < 5.30

### Prompt Report pIC50 for `CC(C)(C)C[C@H]1N[C@@H](C(=O)NCC[C@@](C)(O)CO)[C@H](c2cccc(Cl)c2F)[C@@]12C(=O)Nc1cc(Cl)ccc12`
### Response < 5.00

### Prompt Please report the measured pIC50 for `CC(C)(C)C[C@H]1N[C@@H](C(=O)NCC[C@](C)(O)CO)[C@H](c2cccc(Cl)c2F)[C@@]12C(=O)Nc1cc(Cl)ccc12`
### Response < 5.00

Origin of measurements: patent US9079913B2
